targetOfAssay: Human recombinant MMP-2 (Homo sapiens)
Construct: made in house; host or cells: MMP-2-transfected p2AHT2 cells
protocolDescription: In vitro MMP inhibition, IC50 determination (fluorogenic substrate I)
Assay type: biochemical
testSettings: value outside parenthesis
Classification scheme (IC50): low value: < 30 nM; medium value: ≥ 30 nM and < 200 nM; high value: ≥ 200 nM

# compound, class
records = [
    ("COc1ccc(-c2noc(CCCOc3ccc(S(=O)(=O)C4(C(=O)NO)CCOCC4)cc3)n2)cc1 [Example 237]", "medium value"),
    ("O=C(NO)C1(S(=O)(=O)c2ccc(OCc3nc(-c4ccc(OC(F)(F)F)cc4)no3)cc2)CCOCC1 [Example 132]", "medium value"),
    ("O=C(NO)C1(S(=O)(=O)c2ccc(OCCCc3cccc(-c4ccccn4)c3)cc2)CCOCC1 [Example 153]", "medium value"),
    ("O=C(NO)C1(S(=O)(=O)c2ccc(OCCc3cccc(-c4cccnc4)c3)cc2)CCOCC1 [Example 125]", "low value"),
    ("O=C(NO)C1(S(=O)(=O)c2ccc(OCCCc3nc(-c4ccc(Cl)cc4)no3)cc2)CCOCC1 [Example 243]", "medium value"),
    ("O=C(NO)C1(S(=O)(=O)c2ccc(OCCCc3cccc(-c4ccccc4Cl)c3)cc2)CCOCC1 [Example 162]", "high value"),
]

We now examine a further compound.
# bin label for CC(C)c1ccc(N2CCN(CCCOc3ccc(S(=O)(=O)C4(C(=O)NO)CCOCC4)cc3)C2=O)cc1 [Example 186] high value

====

targetOfAssay: Human recombinant MMP-2 (Homo sapiens, UniProt P08253)
Construct: made in house; host or cells: MMP-2-transfected p2AHT2 cells
Sequence (P08253 110-660): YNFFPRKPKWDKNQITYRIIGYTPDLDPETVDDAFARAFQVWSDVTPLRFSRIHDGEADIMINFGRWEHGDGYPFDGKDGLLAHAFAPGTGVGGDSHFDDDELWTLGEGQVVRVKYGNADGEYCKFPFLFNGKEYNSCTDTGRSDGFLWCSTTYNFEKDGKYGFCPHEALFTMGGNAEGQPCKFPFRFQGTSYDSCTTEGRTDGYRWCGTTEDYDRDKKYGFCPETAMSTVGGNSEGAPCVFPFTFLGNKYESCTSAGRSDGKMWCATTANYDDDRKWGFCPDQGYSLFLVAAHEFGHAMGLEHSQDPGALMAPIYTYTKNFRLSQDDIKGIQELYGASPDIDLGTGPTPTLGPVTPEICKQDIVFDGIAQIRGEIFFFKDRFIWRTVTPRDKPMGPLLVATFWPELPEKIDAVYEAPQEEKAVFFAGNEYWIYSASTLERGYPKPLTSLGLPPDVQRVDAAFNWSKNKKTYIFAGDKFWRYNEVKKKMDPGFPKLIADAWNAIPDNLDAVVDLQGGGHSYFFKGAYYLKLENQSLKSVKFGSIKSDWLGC
protocolDescription: In vitro MMP inhibition, IC50 determination (fluorogenic substrate I)
Assay type: biochemical
testSettings: value outside parentheses (Ki in parenthesis)
The reader will find reported IC50 values listed item by item below.
Just so you know, I need the unit written after the number.

Recorded IC50, per entry:
# mol, IC50
measured = [
    ("CCCCCN(C)c1ccc(S(=O)(=O)C2(C(=O)NO)CCOCC2)cc1", "700 nM"),
    ("C[C@H]1[C@@H](c2ccccc2)OC(=O)N1CCCOc1ccc(S(=O)(=O)C2(C(=O)NO)CCOCC2)cc1", "135 nM"),
]

API: value(readout=IC50, system=Human recombinant MMP-2 (Homo sapiens, UniProt P08253)) for record "Cn1cccc1C(=O)NCCCOc1ccc(S(=O)(=O)C2(C(=O)NO)CCOCC2)cc1" 900 nM

Try this molecule next: "COc1ccc(SCC(C)(C)COc2ccc(S(=O)(=O)C3(C(=O)NO)CCOCC3)cc2)cc1" 2700 nM

====

targetOfAssay: Human recombinant MMP-13 (Homo sapiens, UniProt P45452)
Construct: made in house; host or cells: baculovirus / insect cells
protocolDescription: In vitro MMP inhibition, IC50 determination (fluorogenic substrate I)
Type: biochemical
testSettings: value outside parentheses (Ki in parenthesis)
measuredAttribute: IC50 (nM)
Express the result in nM but write the number alone.

Recorded IC50, per entry:
# molecule, targetOfAssay, readoutNumber
measured = [
    ("O=C(NO)C1(S(=O)(=O)c2ccc(OCCCOc3cccc(C(F)(F)F)c3)cc2)CCN(C2CC2)CC1", "Human recombinant MMP-13 (Homo sapiens, UniProt P45452)", 3.5),
    ("O=C(NCCCOc1ccc(S(=O)(=O)C2(C(=O)NO)CCOCC2)cc1)C12CC3CC(CC(C3)C1)C2", "Human recombinant MMP-13 (Homo sapiens, UniProt P45452)", 1.9),
    ("CC(C)(COc1ccc(S(=O)(=O)C2(C(=O)NO)CCOCC2)cc1)CS(=O)(=O)Cc1cccc(OC(F)(F)F)c1", "Human recombinant MMP-13 (Homo sapiens, UniProt P45452)", 1),
    ("COc1ccc(OC)c(S(=O)(=O)N2CC(Oc3ccc(S(=O)(=O)C4(C(=O)NO)CCOCC4)cc3)C2)c1", "Human recombinant MMP-13 (Homo sapiens, UniProt P45452)", 12),
    ("COc1ccc(C(=O)NCCCOc2ccc(S(=O)(=O)C3(C(=O)NO)CCOCC3)cc2)cc1OC", "Human recombinant MMP-13 (Homo sapiens, UniProt P45452)", 3.7),
    ("O=C(C1CCCCC1)N1CC[C@@H](Oc2ccc(S(=O)(=O)C3(C(=O)NO)CCOCC3)cc2)C1", "Human recombinant MMP-13 (Homo sapiens, UniProt P45452)", 3310),
    ("O=C(NCCCOc1ccc(S(=O)(=O)C2(C(=O)NO)CCOCC2)cc1)c1cc2cccc(O)c2cc1O", "Human recombinant MMP-13 (Homo sapiens, UniProt P45452)", 10),
    ("O=C(NO)C1(S(=O)(=O)c2ccc(OCCCOc3ccccc3C(F)(F)F)cc2)CCOCC1", "Human recombinant MMP-13 (Homo sapiens, UniProt P45452)", 7.6),
    ("O=C(NO)C1(S(=O)(=O)c2ccc(NCCCCc3ccccc3)cc2)CCOCC1", "Human recombinant MMP-13 (Homo sapiens, UniProt P45452)", 7),
    ("CCCC(C)(C)C(=O)NCCCOc1ccc(S(=O)(=O)C2(C(=O)NO)CCOCC2)cc1", "Human recombinant MMP-13 (Homo sapiens, UniProt P45452)", 30),
]

What does the data say about its IC50? Entry: "COC(=O)c1ccccc1S(=O)(=O)N1CC(Oc2ccc(S(=O)(=O)C3(C(=O)NO)CCOCC3)cc2)C1" 40

Try this molecule next: "COc1ccc(-c2nnc(CCCCOc3ccc(S(=O)(=O)C4(C(=O)NO)CCOCC4)cc3)o2)cc1" 0.9

Try this molecule next: CC(C)=CCCC(C)CCOc1ccc(S(=O)(=O)C2(C(=O)NO)CCOCC2)cc1 (stereo not drawn) 3

Try this molecule next: "COc1ccc(C(=O)N2CC[C@@H](Oc3ccc(S(=O)(=O)C4(C(=O)NO)CCOCC4)cc3)C2)cc1" 1480

Try this molecule next: "CCCCOc1ccc(C(=O)NCCCOc2ccc(S(=O)(=O)C3(C(=O)NO)CCOCC3)cc2)cc1" 1.8

# credit: patent US20040024024A1
